Tested on: S. aureus Newman
Conditions: MH broth pH 7.4, 16–20 h, 37 °C
measure_name: MIC S. aureus Newman (µg/mL)
Numeric answer only, unit µg/mL assumed.

smiles_str | MIC S. aureus Newman [µg/mL]
CC(C)C[C@H](NC(=O)[C@H](CC(C)C)NC(=O)[C@H](CC(C)C)NC(=O)[C@H](CCCCN)NC(=O)[C@H](CC(C)C)NC(=O)[C@H](CC(C)C)NC(=O)[C@@H](CCCCN)NC(=O)[C@H](CC(C)C)NC(=O)[C@H](CC(C)C)NC(=O)[C@@H](CCCCN)NC(=O)[C@@H](N)CCCCN)C(N)=O | 2

(Q) Param readout = MIC S. aureus Newman; param system = S. aureus Newman; param query = CC(C)C[C@H](NC(=O)[C@H](CC(C)C)NC(=O)[C@H](CC(C)C)NC(=O)[C@@H](CCCCN)NC(=O)[C@H](CC(C)C)NC(=O)[C@H](CC(C)C)NC(=O)[C@@H](CCCCN)NC(=O)[C@H](CC(C)C)NC(=O)[C@H](CC(C)C)NC(=O)[C@@H](CCCCN)NC(=O)[C@H](N)CCCCN)C(N)=O ; response: value
(A) 8

(Q) Param readout = MIC S. aureus Newman; param system = S. aureus Newman; param query = CC(C)C[C@H](NC(=O)[C@H](CC(C)C)NC(=O)[C@H](CC(C)C)NC(=O)[C@H](CCCCN)NC(=O)[C@H](CC(C)C)NC(=O)[C@H](CC(C)C)NC(=O)[C@H](CCCCN)NC(=O)[C@@H](CC(C)C)NC(=O)[C@H](CC(C)C)NC(=O)[C@@H](CCCCN)NC(=O)[C@@H](N)CCCCN)C(N)=O ; response: value
(A) 2

(Q) Param readout = MIC S. aureus Newman; param system = S. aureus Newman; param query = CC(C)C[C@H](NC(=O)[C@H](CC(C)C)NC(=O)[C@H](CC(C)C)NC(=O)[C@H](CCCCN)NC(=O)[C@H](CC(C)C)NC(=O)[C@H](CC(C)C)NC(=O)[C@H](CCCCN)NC(=O)[C@H](CC(C)C)NC(=O)[C@H](CC(C)C)NC(=O)[C@H](CCCCN)NC(=O)[C@@H](N)CCCCN)C(N)=O ; response: value
(A) 2
